Source of measurements: patent US12319655B2

Target: UniProtKB P15056
Assay: Biochemical Assay for B-Raf (1)
Conditions: Table J, assay version (1); read-out: BRAF (1) IC50
Description: Biochemical Assay for B-Raf (1) Activity of B-Raf kinase (SEQ. ID NO: 2) was determined spectroscopically using a coupled pyruvate kinase/lactate dehydrogenase assay that continuously monitors the ATP hydrolysis-dependent oxidation of NADH (e.g., Schindler et al., Science, 2000, 289, 1938-1942). […] Inhibition of B-Raf was measured by adding serial diluted test compound (final assay concentration of 1% DMSO). […] The reaction rate was calculated using the 4 to 5 h time frame. […]
assay-endpoint: IC50

Reference set (3 entries):
CNC(=O)c1cc(-c2nccc(-c3cc(NC(=O)c4ccnc(C5(C#N)CC5)c4)ccc3C)n2)ccn1 = ≤ 100 nM
Cc1ncc(NC(=O)c2cnnc(C3CC3)c2)cc1-c1ccnc(-c2ccnc(NC(=O)C3CC3)c2)n1 = ≤ 100 nM
COC(=O)Nc1cc(-c2cnnc(-c3cc(NC(=O)c4ccnc(C(C)(C)C#N)c4)cnc3C)c2)ccn1 = 100 to 500 nM

Query: State the recorded IC50 for this entry: CCOc1cc(-c2cc(NC(=O)c3ccnc(C(F)(F)F)c3)ccc2C)cc(-c2ccnc(NC(=O)C3CC3)c2)n1
Response: ≤ 100 nM

---

Reported IC50 is given for each of the following compounds.
Tested on: WM3928 cells
Test: WM3928 Cell Proliferation Assay (1)
Type: cell-based

Cc1ccc(NC(=O)c2ccnc(C(C)(C)C#N)c2)cc1-c1ccnc(-c2ccnc(NC(=O)C3(C#N)CC3)c2)n1 [Example 241] = ≤ 100 nM
Cc1cc(F)c(NC(=O)c2cnnc(C3CC3)c2)cc1-c1nccc(-c2ccnc(NC(=O)C3CC3)c2)n1 [Example 252] = 500 to 1000 nM
Cc1ccc(NC(=O)c2ccnc(C(C)(C)C#N)c2)cc1-c1cc(-c2cc(NC(=O)C3CC3)ncn2)cc(C2CC2)c1 [Example 216] = ≤ 100 nM
Cc1ncc(NC(=O)c2cncc(C(F)F)c2)cc1-c1cccc(-c2cc(NC(=O)C3CC3)ncn2)c1 [Example 280] = ≤ 100 nM
Cc1ccc(NC(=O)c2ccnc(C(F)(F)F)c2)cc1-c1ccnc(-c2ccnc(N)c2)c1 [Example 16] = 1000 to 10000 nM
CC(=O)Nc1cc(-c2nccc(-c3cc(NC(=O)c4ccnc(C5(C#N)CC5)c4)ccc3C)n2)ccn1 [Example 151] = ≤ 100 nM

Query: State the recorded IC50 for this entry: Cc1ccc(NC(=O)c2cnn(C(C)(C)C)c2)cc1-c1cc(-c2ccnc(NC(=O)C3CC3)c2)cnn1 [Example 321]
Response: 100 to 500 nM

---

Molecular target: B-Raf kinase (SEQ. ID NO: 2) (Homo sapiens (Human), UniProt P15056)
Sequence (P15056 416-766): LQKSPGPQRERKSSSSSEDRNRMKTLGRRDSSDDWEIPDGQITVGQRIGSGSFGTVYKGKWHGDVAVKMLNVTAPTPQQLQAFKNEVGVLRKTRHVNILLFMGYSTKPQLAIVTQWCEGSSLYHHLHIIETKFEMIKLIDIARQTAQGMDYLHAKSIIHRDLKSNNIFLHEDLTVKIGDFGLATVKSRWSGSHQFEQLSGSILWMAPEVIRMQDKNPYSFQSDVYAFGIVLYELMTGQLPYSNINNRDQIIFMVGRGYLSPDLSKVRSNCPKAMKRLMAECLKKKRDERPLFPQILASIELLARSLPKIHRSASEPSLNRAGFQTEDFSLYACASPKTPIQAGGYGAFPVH
Experiment: Biochemical Assay for B-Raf (1)
Conditions: Table J, assay version (1); read-out: BRAF (1) IC50
Protocol: Biochemical Assay for B-Raf (1) Activity of B-Raf kinase (SEQ. ID NO: 2) was determined spectroscopically using a coupled pyruvate kinase/lactate dehydrogenase assay that continuously monitors the ATP hydrolysis-dependent oxidation of NADH (e.g., Schindler et al., Science, 2000, 289, 1938-1942). […] Inhibition of B-Raf was measured by adding serial diluted test compound (final assay concentration of 1% DMSO). […] The reaction rate was calculated using the 4 to 5 h time frame. […]
Reported IC50 is given for each of the following compounds.

Reference set (3 entries):
CNC(=O)c1cc(-c2cc(-c3cc(NC(=O)c4ccnc(C(F)(F)F)c4)cnc3C)ccn2)ccn1 = 0.1 to 0.5 µM
Cc1ccc(NC(=O)c2ccnc(C(F)(F)F)c2)cc1-c1cccc(-c2ccnc(N)c2)c1 = ≤ 0.1 µM
CNC(=O)c1cc(-c2cncc(-c3cc(NC(=O)c4cccc(C(C)(C)C#N)c4)ccc3C)n2)ccn1 = ≤ 0.1 µM

Please find the next compound below.
Query: State the recorded IC50 for this entry: CCOc1ncc(-c2cc(NC(=O)c3ccnc(C(F)(F)F)c3)ccc2C)cc1-c1ccnc(NC(C)=O)c1
Response: ≤ 0.1 µM
